# System: Mus musculus
# test.description: Antagonist effect on estrogen activity assessed as inhibition of estrogen-stimulated uterine weight gain in ovariectomized mouse at 3 mg/kg, po
# Format: functional
Kindly return t if reported inhibition in vivo at 3 mg/kg is no lower than 50%; return f if it is lower.

# input Is it the case that C[C@]1(c2ccc(O)cc2)CSc2cc(O)ccc2[C@H]1CCCCCCCCC(CCCC(F)(F)C(F)(F)F)C(=O)O (stereo partly specified) has inhibition in vivo at 3 mg/kg reaching or exceeding 50%?
# output f

Next:
# input Is it the case that C[C@]12CC[C@@H]3c4ccc(O)cc4C[C@@H](CCCCCCCCCC(CCCC(F)(F)C(F)(F)C(F)(F)C(F)(F)F)C(=O)O)[C@H]3[C@@H]1CC[C@@H]2O (stereo partly specified) has inhibition in vivo at 3 mg/kg reaching or exceeding 50%?
# output f

# input Then what about the compound C[C@]12CC[C@@H]3c4ccc(O)cc4C[C@@H](CCCCCCCCC[S+]([O-])CCCC(F)(F)C(F)(F)F)[C@H]3[C@@H]1CC[C@@H]2O (stereo partly specified) [FULVESTRANT] ?
# output f

# input Then what about the compound C[C@]12CC[C@@H]3c4ccc(O)cc4C[C@@H](CCCCCCCCC(CCC(F)(F)C(F)(F)C(F)(F)C(F)(F)F)C(=O)O)[C@H]3[C@@H]1CC[C@@H]2O (stereo partly specified) ?
# output t

# input Then what about the compound C[C@]12CC[C@@H]3c4ccc(O)cc4C[C@@H](CCCCCCCC[C@@H](CCCC(F)(F)C(F)(F)C(F)(F)C(F)(F)F)C(=O)O)[C@H]3[C@@H]1CC[C@@H]2O ?
# output t
